Quick reference: Inhibition of the listed items.
# System: Escherichia coli
# Condition context: Concentration 32 ug.mL-1; ASSAY_TEST Inhibition of Bacterial Growth; detection method Absorption (OD600); MEDIA CAMHB; plate type 384well; NBS; CORNING #3640; time 18 hr
# Description: Antibacterial activity against Escherichia coli ATCC 25922 (CO-ADD:GN_001); MIC in CAMBH media using NBS plates, by OD(600)
Measured potencies and affinities stand elsewhere.
Readout kind: Inhibition (%)

{"Compound": "O=C(Cc1cccc2ccccc12)N/N=C/c1c[nH]c2ccccc12", "Test system": "Escherichia coli", "Reported result": 15.45}
{"Compound": "O=C(COc1ccc2ccccc2c1)N/N=C/c1c[nH]c2ccccc12", "Test system": "Escherichia coli", "Reported result": 6.84}
{"Compound": "COc1ccc2c(c1)cc(CN)n2C", "Test system": "Escherichia coli", "Reported result": 5.66}
{"Compound": "Cl.NNN1CCc2ccccc21", "Test system": "Escherichia coli", "Reported result": 10.83}
{"Compound": "COc1cccc(C2c3c(ccc4ccccc34)OC(=NBr)C2(Br)C#N)c1 (stereo not given)", "Test system": "Escherichia coli", "Reported result": -16.78}
{"Compound": "COc1ccc2c(c1)cc(C(=O)O)n2C", "Test system": "Escherichia coli", "Reported result": -7.03}
{"Compound": "O=C(NCc1ccccc1)c1cc2ccccc2[nH]1", "Test system": "Escherichia coli", "Reported result": 8.05}
{"Compound": "C#CCNC.O=C(O)C(=O)O", "Test system": "Escherichia coli", "Reported result": 23.06}
{"Compound": "COc1ccccc1C1C(C#N)=C(N)Oc2c1ccc1ccccc21 (stereo not given)", "Test system": "Escherichia coli", "Reported result": -9.01}
{"Compound": "COC(=O)C1(NC(=O)c2ccccc2)CC1c1ccccc1 (stereo not given)", "Test system": "Escherichia coli", "Reported result": -4.02}
{"Compound": "C#CCN(C)Cc1cc2cc(OC)ccc2n1C", "Test system": "Escherichia coli", "Reported result": -8.2}
{"Compound": "COc1ccc(-c2cc(-c3cc4ccc(OC)cc4nc3Cl)cc(=O)[nH]2)cc1", "Test system": "Escherichia coli", "Reported result": -13.67}
{"Compound": "COC(=O)C(=Cc1ccc(OC)cc1)NC(=O)c1ccccc1", "Test system": "Escherichia coli", "Reported result": 11.52}
{"Compound": "Cc1ccc(C2c3c(Cl)nnnc3Oc3ccc4ccccc4c32)cc1 (stereo not given)", "Test system": "Escherichia coli", "Reported result": 16.16}
{"Compound": "C=C1CN(C)c2c(C#N)c(-c3ccccc3)c(C#N)c(=N)n21", "Test system": "Escherichia coli", "Reported result": -20.05}
{"Compound": "C#CCN(C)c1nc(NCCCCC2CCN(Cc3ccccc3)CC2)c(C#N)cc1C#N", "Test system": "Escherichia coli", "Reported result": -7.65}
{"Compound": "COc1ccc(C2c3ccc4ccccc4c3Oc3nc4c(c(N)c32)CCCC4)c(OC)c1 (stereo not given)", "Test system": "Escherichia coli", "Reported result": -4.44}
{"Compound": "CCOC(=O)c1cc2c(N)c3c(nc2nc1C)CCCC3", "Test system": "Escherichia coli", "Reported result": -8.78}
{"Compound": "COC1=C(C#N)CCC(=O)N1", "Test system": "Escherichia coli", "Reported result": -6.96}
{"Compound": "CN(C)c1cccc(C(=O)c2cccc(N(C)C)c2)c1", "Test system": "Escherichia coli", "Reported result": 7.89}
{"Compound": "COc1nc(Cl)c(C#N)c(-c2ccccc2)c1C#N", "Test system": "Escherichia coli", "Reported result": -14.05}
{"Compound": "COc1ccccc1-c1c(C#N)c(=O)oc2c1ccc1ccccc12", "Test system": "Escherichia coli", "Reported result": 19.18}
{"Compound": "Cc1n[nH]c2c1C(c1ccc([N+](=O)[O-])cc1)C(C#N)=C(N)O2 (stereo not given)", "Test system": "Escherichia coli", "Reported result": 12.5}
{"Compound": "O=C(NNC(Cc1ccccc1)Cc1ccccc1)c1cc2ccccc2[nH]1", "Test system": "Escherichia coli", "Reported result": -3.49}
{"Compound": "C#CCN(C)c1nc(OC)c(C#N)cc1C#N", "Test system": "Escherichia coli", "Reported result": -19.1}
